Cited source: patent US20120196824A1

Test system: Mouse Ischemic Stroke Model
Assay: Infarct volume suppressive and motor function improving effects in mouse ischemic stroke model (Rose Bengal photothrombosis, TTC staining, Rota-rod)
Assay type: in vivo
Conditions: walking time on Rota-Rod with Vehicle 100%, dose of 10 mg/kg, two days later
Counter-ions that a name gives are not always drawn.

>  <molecule>
CCNCCNC(=O)CN(CC(=O)N(C)N1Cc2ccc(F)cc2C1)c1cc2cnn(C)c2cc1C [Example 244, hydrochloride]

>  <u>
%

>  <walking time (%)>
330

$$$$
>  <molecule>
Nc1nccc2c1ncn2[C@@H]1O[C@H](CO)[C@@H](O)[C@H]1O [3-deazaadenosine, reference compound]

>  <u>
%

>  <walking time (%)>
170

$$$$
>  <molecule>
CCNCCNC(=O)CN(CC(=O)N(C)N1Cc2ccccc2C1)c1ccc(-c2noc(C)n2)cc1C

>  <u>
%

>  <walking time (%)>
250

$$$$
>  <molecule>
CCNCCNC(=O)CN(CC(=O)N(C)N1Cc2ccc(F)cc2C1)c1cc2cnn(CC(F)F)c2cc1C [Example 253, hydrochloride]

>  <u>
%

>  <walking time (%)>
230

$$$$

====

Biological target: Human-recombinant-S-Adenosyl-L-Homocysteine Hydrolase (Homo sapiens, UniProt P23526)
Sequence (P23526 whole entry): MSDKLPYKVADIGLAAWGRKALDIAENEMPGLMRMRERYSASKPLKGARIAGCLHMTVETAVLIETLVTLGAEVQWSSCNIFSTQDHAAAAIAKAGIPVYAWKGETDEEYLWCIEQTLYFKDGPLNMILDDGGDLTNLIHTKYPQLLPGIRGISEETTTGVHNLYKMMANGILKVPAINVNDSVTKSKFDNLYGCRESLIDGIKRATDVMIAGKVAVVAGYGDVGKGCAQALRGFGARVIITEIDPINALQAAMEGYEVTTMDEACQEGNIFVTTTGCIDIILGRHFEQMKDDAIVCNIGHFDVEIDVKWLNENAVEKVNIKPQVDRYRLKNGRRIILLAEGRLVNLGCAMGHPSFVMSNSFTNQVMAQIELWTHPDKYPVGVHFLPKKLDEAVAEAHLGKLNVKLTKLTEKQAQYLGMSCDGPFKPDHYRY
Assay: Measurement of enzyme inhibitory activity (hydrolysis of S-Adenosyl-L-Homocysteine, HPLC)
Settings: S-Adenosyl-L-Homocysteine 10 μM, pH 7.2, 37° C., 15 min
Counter-ions that a name gives are not always drawn.
Lab note: cut-off is 40 nM. Strictly less in IC50 is 1. Exactly 40 nM or more is 0.

>  <molecule>
CCNCCNC(=O)CN(CC(=O)N(C)N1Cc2ccccc2C1)c1ccc(-c2nc(C(N)=O)co2)cc1C [Example 309, dihydrochloride]

>  <classification>
1

$$$$
>  <molecule>
CCNCCNC(=O)CN(CC(=O)N(C)N1Cc2ccccc2C1)c1cc2c(cc1C)oc(=O)n2C

>  <classification>
0

$$$$
>  <molecule>
CCNCCNC(=O)CN(CC(=O)N(C)N1Cc2ccccc2C1)c1ccc(-c2nc(C)no2)cc1C

>  <classification>
1

$$$$
>  <molecule>
CCNCCNC(=O)CN(CC(=O)N(C)N1Cc2ccc(F)cc2C1)c1cc2cnn(CC(F)F)c2cc1C [Example 253, hydrochloride]

>  <classification>
1

$$$$
>  <molecule>
Cc1cc2c(cc1N(CC(=O)NCCNC(C)C)CC(=O)N(C)N1Cc3ccccc3C1)oc(=O)n2C

>  <classification>
0

$$$$
>  <molecule>
Cc1nc(-c2ccc(N(CC(=O)NCCNC(C)C)CC(=O)N(C)N3Cc4ccccc4C3)c(C)c2)no1

>  <classification>
0

$$$$
>  <molecule>
CCNCCNC(=O)CN(CC(=O)N(C)N1Cc2ccc(OC)cc2C1)c1cc(-c2noc(C)n2)ccc1C

>  <classification>
0

$$$$

====

walking time (%) overview
System: Mouse Ischemic Stroke Model
Assay: Infarct volume suppressive and motor function improving effects in mouse ischemic stroke model (Rose Bengal photothrombosis, TTC staining, Rota-rod)
Assay type: in vivo
Conditions: walking time on Rota-Rod with Vehicle 100%, dose of 10 mg/kg, two days later
Structures can show the parent of a compound that is named as a salt.

>  <compound>
CCNCCNC(=O)CN(CC(=O)N(C)N1Cc2ccc(F)cc2C1)c1cc2c(C)noc2cc1C [Example 183, dihydrochloride]

>  <u>
%

>  <walking time (%)>
240

$$$$
>  <compound>
CCNCCNC(=O)CN(CC(=O)N(C)N1Cc2ccc(F)cc2C1)c1cc(-c2noc(C)n2)ccc1C.Cl

>  <u>
%

>  <walking time (%)>
240

$$$$
>  <compound>
CCNCCNC(=O)CN(CC(=O)N(C)N1Cc2ccc(F)cc2C1)c1cc2c(cc1C)CCC2=O

>  <u>
%

>  <walking time (%)>
340

$$$$
